# protocol: Whole blood stability, mouse
# Assay type: in vitro ADME
# conditions: 60 min
# Text: The results of the assay on stability in blood and IC50 values for pancreatic cancer cell line KP4 are given below in Table 24.
quantity-measured: Whole Blood Stability % Remaining at 37° C. Mouse (%)
Write it as a number; the unit % goes unstated.

| compound | value-reported |
| --- | --- |
| CN(C)C(=O)[C@H]1Cc2c([nH]c3ccccc23)[C@H](c2ccc([Si](C)(C)C)cc2)N1C(=O)CCl | 13.3 |

Lookup: Could you please provide reported Whole Blood Stability % Remaining at 37° C. Mouse for CN(C)C(=O)[C@H]1Cc2c([nH]c3ccccc23)[C@H](c2ccc(S(=O)(=O)C3CC3)cc2)N1C(=O)CCl ? Thanks!
Found: 36.6

Lookup: Could you please provide reported Whole Blood Stability % Remaining at 37° C. Mouse for COCCN(C(=O)c1ccc([C@H]2c3[nH]c4ccccc4c3C[C@H](C(=O)N(C)C)N2C(=O)CCl)cc1)C(C)(C)C ? Thanks!
Found: 52.0

Lookup: Could you please provide reported Whole Blood Stability % Remaining at 37° C. Mouse for CN(C)C(=O)[C@H]1Cc2c([nH]c3ccccc23)[C@@H](c2ccc([Si](C)(C)C)cc2)N1C(=O)CCl [Compound 67a] ? Thanks!
Found: 18.2

---

# Test system: MCF-10A
# protocol: Cell viability assay (CellTiter Glo), non-tumorigenic breast epithelial cell line MCF-10A
# Format: cell-based
# conditions: Homo sapiens, 96 hours
quantity-measured: IC50 (µM)
Write it as a number; the unit µM goes unstated.

| compound | target-entity | IC50 [µM] |
| --- | --- | --- |
| COC(=O)[C@H]1Cc2c([nH]c3ccccc23)[C@H](c2ccc(C(=O)OCC3CC3)cc2)N1C(=O)CCl [Example 75] | MCF-10A | 1.29 |
| CN(C)C(=O)[C@H]1Cc2c([nH]c3ccccc23)[C@H](c2ccc(C(=O)N(CCC(=O)OC(C)(C)C)C(C)(C)C)cc2)N1C(=O)CCl [Example 54] | MCF-10A | 0.56 |

Here is the next item to consider.
Lookup: Could you please provide reported IC50 for CN(C)C(=O)[C@H]1Cc2c([nH]c3ccccc23)[C@H](c2ccc(C(=O)OC(C)(C)C)cc2)N1C(=O)CCl [Example 21] ? Thanks!
Found: 1.58
